Molecular target: Hap1 (UniProt P0CE41)
Sequence (P0CE41 whole entry): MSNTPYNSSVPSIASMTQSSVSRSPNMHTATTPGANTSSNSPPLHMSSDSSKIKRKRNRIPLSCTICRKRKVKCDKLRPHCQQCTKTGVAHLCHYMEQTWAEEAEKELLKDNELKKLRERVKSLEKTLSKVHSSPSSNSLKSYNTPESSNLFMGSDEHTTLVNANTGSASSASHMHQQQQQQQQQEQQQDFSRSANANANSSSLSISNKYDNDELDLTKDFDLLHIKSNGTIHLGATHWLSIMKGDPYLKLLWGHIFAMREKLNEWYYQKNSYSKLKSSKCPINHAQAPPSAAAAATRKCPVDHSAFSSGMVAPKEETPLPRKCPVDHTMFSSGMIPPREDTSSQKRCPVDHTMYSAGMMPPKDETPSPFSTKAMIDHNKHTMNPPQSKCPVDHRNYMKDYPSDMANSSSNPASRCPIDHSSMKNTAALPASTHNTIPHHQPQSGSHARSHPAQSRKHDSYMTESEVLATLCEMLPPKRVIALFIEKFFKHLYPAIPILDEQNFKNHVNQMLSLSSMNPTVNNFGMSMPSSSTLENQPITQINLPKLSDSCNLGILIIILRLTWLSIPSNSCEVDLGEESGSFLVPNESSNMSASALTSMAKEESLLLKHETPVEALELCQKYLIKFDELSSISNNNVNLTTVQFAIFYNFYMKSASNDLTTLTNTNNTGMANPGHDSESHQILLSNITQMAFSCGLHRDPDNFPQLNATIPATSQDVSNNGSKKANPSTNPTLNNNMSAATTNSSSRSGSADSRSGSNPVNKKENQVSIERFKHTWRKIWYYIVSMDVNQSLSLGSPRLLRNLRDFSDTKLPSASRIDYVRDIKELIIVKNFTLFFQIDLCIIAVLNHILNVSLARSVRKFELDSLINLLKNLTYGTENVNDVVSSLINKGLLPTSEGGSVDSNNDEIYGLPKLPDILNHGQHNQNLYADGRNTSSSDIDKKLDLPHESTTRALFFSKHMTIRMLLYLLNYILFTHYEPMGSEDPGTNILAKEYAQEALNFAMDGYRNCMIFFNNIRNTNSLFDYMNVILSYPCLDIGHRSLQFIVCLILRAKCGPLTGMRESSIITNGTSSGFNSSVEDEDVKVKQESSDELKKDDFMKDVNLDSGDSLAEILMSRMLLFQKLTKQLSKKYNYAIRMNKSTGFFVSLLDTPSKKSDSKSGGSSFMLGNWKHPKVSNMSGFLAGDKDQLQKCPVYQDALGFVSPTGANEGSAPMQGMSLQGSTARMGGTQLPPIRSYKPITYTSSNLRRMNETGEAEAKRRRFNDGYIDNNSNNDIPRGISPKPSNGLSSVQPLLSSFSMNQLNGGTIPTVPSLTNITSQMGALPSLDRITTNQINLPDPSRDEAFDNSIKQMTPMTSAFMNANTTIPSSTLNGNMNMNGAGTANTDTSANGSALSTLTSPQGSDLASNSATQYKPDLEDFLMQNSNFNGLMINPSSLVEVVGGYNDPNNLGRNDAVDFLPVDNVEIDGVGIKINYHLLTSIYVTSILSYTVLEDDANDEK
Assay: PBM E-score (8-mer binding enrichment) (E-score (-0.5 to 0.5)); higher = stronger / more preferred TF binding
Settings: protein concentration: 200 nM; construct: GST-DNA-binding domain
The full ranking holds about 33,000 sequences; the median of “E-score (-0.5 to 0.5)” is about -0.053, and the highest 2% start at about 0.37. The list comes from a sample in which the highest values are over-represented; it also holds close analogues and randomly drawn sequences.
The following sequences are shown together with reported PBM E-score values.
The response must contain the number and no unit.

Answered examples (6):
Residue codes | PBM E-score
CCGGAATA | 0.357
CACGCCGA | 0.169
AACTCCAA | -0.0924
ACCGGGAA | 0.35
ACGGGGAC | 0.159
CCTGCCGA | 0.156

PBM E-score for CCCGGGAA is 0.339
